B1: Hairpin Ribozyme (parent)
chain: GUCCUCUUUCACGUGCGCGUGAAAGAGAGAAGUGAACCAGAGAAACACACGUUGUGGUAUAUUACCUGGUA

Variants of: B1
Assay: self-cleavage, relative activity (ratio to wild type); higher = more cleavage; co-transcriptional
We use 0.3 as the dividing line for self-cleavage: on or above the line is yes (1), below is no (0).

- variant-notation: "G42U A44C"
  assigned-class: "no (0)"
- variant-notation: "C48A A71C"
  assigned-class: "yes (1)"
- variant-notation: "G15C C50U"
  assigned-class: "yes (1)"
- variant-notation: "C12G A35U"
  assigned-class: "yes (1)"
- variant-notation: "C37U A39G"
  assigned-class: "no (0)"
- variant-notation: "G1C A30C"
  assigned-class: "no (0)"
- variant-notation: "U55C U58G"
  assigned-class: "no (0)"
- variant-notation: "G25A A30C"
  assigned-class: "no (0)"
- variant-notation: "A28C A30C"
  assigned-class: "no (0)"
- variant-notation: "A43G G51A"
  assigned-class: "no (0)"
- variant-notation: "U7G U55C"
  assigned-class: "no (0)"
- variant-notation: "C38U G56A"
  assigned-class: "no (0)"
- variant-notation: "A30C A47G"
  assigned-class: "no (0)"
- variant-notation: "A30G A59G"
  assigned-class: "yes (1)"
- variant-notation: "U8G A23C"
  assigned-class: "yes (1)"
- variant-notation: "C18U A64U"
  assigned-class: "no (0)"
- variant-notation: "U14A A64G"
  assigned-class: "yes (1)"
- variant-notation: "G25U U33A"
  assigned-class: "no (0)"
- variant-notation: "U63C A71G"
  assigned-class: "yes (1)"
- variant-notation: "G21C U63G"
  assigned-class: "no (0)"
- variant-notation: "G19U U63A"
  assigned-class: "no (0)"
- variant-notation: "U53G U58A"
  assigned-class: "yes (1)"
- variant-notation: "G13U U62C"
  assigned-class: "no (0)"
- variant-notation: "A49G U62C"
  assigned-class: "no (0)"
- variant-notation: "A44U C65G"
  assigned-class: "no (0)"
- variant-notation: "C3U U60G"
  assigned-class: "yes (1)"
- variant-notation: "A49U G56C"
  assigned-class: "no (0)"
- variant-notation: "G19A G25C"
  assigned-class: "yes (1)"
- variant-notation: "U5C U8A"
  assigned-class: "no (0)"
- variant-notation: "G51U U70A"
  assigned-class: "yes (1)"
- variant-notation: "U2G U63G"
  assigned-class: "no (0)"
- variant-notation: "C12U U33G"
  assigned-class: "no (0)"
- variant-notation: "A43G G57U"
  assigned-class: "no (0)"
- variant-notation: "A41G A49G"
  assigned-class: "yes (1)"
- variant-notation: "G17C U60C"
  assigned-class: "yes (1)"
- variant-notation: "A39G G40A"
  assigned-class: "no (0)"
- variant-notation: "G25A U67G"
  assigned-class: "no (0)"
- variant-notation: "G34A U55A"
  assigned-class: "yes (1)"
- variant-notation: "C18U C66A"
  assigned-class: "no (0)"
